Can you tell me pIC50 for the items I'm about to list?
- system under test: LRBA and CTLA-4 reporting system (Homo sapiens, UniProt P16410+P50851)
- Sequence (P16410 36-223): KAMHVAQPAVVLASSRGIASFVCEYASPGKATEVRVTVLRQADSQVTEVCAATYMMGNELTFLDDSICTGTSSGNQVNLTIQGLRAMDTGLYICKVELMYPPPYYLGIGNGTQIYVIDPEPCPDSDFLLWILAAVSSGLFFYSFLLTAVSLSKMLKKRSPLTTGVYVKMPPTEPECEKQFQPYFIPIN
- Sequence (P50851 whole entry): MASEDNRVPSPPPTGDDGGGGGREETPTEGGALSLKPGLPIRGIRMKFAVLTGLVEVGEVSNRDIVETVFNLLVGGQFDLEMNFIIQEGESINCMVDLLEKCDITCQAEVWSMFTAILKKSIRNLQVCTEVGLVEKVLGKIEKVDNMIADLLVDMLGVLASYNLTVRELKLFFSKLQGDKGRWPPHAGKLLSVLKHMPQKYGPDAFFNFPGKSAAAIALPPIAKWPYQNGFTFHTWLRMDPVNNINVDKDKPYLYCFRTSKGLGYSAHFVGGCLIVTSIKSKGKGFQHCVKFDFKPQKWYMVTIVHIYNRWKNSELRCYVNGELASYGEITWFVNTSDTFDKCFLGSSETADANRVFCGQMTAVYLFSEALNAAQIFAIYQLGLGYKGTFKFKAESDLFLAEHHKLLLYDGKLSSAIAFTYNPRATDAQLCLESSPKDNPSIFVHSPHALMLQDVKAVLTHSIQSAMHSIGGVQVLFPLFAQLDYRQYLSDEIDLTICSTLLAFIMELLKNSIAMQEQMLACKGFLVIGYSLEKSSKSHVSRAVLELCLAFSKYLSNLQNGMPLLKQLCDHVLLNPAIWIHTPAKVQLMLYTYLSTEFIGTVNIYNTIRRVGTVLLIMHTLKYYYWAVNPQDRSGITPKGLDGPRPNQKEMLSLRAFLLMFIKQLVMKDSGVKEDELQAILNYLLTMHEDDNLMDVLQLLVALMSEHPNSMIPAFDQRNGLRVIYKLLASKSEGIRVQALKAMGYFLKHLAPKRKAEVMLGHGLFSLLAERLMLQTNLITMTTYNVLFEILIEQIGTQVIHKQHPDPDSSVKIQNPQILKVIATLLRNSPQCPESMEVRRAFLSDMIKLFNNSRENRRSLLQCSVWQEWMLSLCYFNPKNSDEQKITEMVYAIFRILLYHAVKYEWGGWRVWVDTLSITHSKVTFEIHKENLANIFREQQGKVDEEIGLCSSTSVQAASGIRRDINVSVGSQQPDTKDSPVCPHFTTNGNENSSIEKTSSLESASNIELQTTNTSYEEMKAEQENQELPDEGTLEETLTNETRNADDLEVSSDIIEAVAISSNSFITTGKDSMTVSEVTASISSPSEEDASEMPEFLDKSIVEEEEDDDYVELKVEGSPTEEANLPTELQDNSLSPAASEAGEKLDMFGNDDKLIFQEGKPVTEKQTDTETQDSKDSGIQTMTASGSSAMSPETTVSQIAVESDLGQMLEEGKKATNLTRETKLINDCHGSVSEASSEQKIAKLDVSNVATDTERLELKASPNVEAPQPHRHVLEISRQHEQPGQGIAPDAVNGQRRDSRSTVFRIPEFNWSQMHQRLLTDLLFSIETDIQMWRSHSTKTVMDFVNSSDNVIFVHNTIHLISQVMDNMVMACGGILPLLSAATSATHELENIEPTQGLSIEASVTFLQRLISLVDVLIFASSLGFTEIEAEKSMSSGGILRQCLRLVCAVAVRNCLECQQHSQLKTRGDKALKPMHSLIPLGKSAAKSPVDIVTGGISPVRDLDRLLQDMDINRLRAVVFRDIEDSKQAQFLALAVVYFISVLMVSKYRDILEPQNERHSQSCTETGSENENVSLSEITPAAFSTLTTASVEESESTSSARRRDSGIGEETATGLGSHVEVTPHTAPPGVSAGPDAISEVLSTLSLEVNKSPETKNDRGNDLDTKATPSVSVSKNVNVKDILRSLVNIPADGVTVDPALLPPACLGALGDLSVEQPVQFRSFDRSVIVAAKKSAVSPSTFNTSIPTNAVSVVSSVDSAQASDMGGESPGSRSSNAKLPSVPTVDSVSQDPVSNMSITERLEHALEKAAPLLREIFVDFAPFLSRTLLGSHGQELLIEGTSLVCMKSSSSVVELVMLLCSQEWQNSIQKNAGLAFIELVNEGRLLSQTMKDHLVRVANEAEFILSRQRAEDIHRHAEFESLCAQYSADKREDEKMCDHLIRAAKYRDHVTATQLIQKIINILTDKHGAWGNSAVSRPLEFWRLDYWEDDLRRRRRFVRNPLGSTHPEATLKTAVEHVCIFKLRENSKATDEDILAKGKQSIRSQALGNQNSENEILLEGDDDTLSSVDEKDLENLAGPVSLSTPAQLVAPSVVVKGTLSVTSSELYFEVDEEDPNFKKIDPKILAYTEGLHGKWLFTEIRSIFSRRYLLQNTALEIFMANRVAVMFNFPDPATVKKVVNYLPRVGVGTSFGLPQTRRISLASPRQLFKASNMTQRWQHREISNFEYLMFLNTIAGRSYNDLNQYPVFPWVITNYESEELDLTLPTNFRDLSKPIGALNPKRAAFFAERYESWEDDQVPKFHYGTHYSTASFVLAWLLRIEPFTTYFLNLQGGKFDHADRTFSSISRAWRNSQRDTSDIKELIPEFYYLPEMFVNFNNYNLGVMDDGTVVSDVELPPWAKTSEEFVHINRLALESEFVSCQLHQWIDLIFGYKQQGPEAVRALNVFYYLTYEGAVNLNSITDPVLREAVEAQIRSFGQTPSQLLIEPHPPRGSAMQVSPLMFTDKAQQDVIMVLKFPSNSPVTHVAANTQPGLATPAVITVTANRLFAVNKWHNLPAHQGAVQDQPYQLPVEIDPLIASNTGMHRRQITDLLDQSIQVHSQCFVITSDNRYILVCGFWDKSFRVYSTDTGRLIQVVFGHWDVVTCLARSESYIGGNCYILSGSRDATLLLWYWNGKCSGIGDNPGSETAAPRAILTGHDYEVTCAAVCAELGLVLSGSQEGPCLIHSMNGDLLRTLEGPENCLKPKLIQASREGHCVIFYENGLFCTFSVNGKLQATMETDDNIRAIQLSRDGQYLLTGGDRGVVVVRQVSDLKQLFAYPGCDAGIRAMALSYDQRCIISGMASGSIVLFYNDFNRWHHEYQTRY
- experiment: LRBA/CTLA-4 protein-protein interaction reporting system, dual luciferase assay in HEK293 cells
- reported conditions: HEK293 cells co-transfected with LRBA and CTLA-4 reporting system, 24 h after dosing; read-out: In vitro activity (IC50: concentration of compounds that inhibit 50% of reporting system activity)
pIC50: −log10 of the molar value.

Problem: For the compound NC1CCN(c2nccc(-c3cnc4ccccc4c3)n2)CC1 , what pIC50 is on record?
Result: 6.00 to 6.70

Problem: For the compound c1ccc2ncc(-c3cc4nccn4c(N4CCNCC4)n3)cc2c1 , what pIC50 is on record?
Result: 6.00 to 6.70

Problem: For the compound O=CNCC1CCN(c2nccc(-c3cnc4ccccc4c3)n2)CC1 , what pIC50 is on record?
Result: < 5.70

Problem: For the compound NCC1CCN(c2nccc(-c3ccc4ccccc4n3)n2)CC1 , what pIC50 is on record?
Result: < 5.70

Problem: For the compound NCC1CCN(c2nccc(-c3cc(=O)c4ccccc4o3)n2)CC1 , what pIC50 is on record?
Result: < 5.70

Problem: For the compound c1ccc2ncc(-c3cc(N4CCNCC4)ncn3)cc2c1 , what pIC50 is on record?
Result: > 6.70

Problem: For the compound c1ccc2cc(-c3ccnc(N4CCNCC4)n3)ccc2c1 [Comparing compound 1, reference compound] , what pIC50 is on record?
Result: < 5.70

Problem: For the compound NCC1CCN(c2nccc(-c3cc4ccccc4nc3O)n2)CC1 , what pIC50 is on record?
Result: > 6.70

Problem: For the compound COc1cc(-c2cnc3ccccc3c2)nc(N2CCNCC2)n1 , what pIC50 is on record?
Result: > 6.70

Problem: For the compound OCC1CCN(c2nccc(-c3cnc4ccccc4c3)n2)CC1 , what pIC50 is on record?
Result: < 5.70

Problem: For the compound c1ccc2ncc(-c3ccnc(N4CCCNCC4)n3)cc2c1 , what pIC50 is on record?
Result: < 5.70

Problem: For the compound Nc1cnc(N2CCNCC2)nc1-c1cnc2ccccc2c1 , what pIC50 is on record?
Result: > 6.70

Problem: For the compound Cc1c(-c2cnc3ccccc3c2)ncnc1N1CCNCC1 , what pIC50 is on record?
Result: > 6.70

Problem: For the compound c1ccc2ncc(-c3ccnc(N4CCNCC4)n3)cc2c1 , what pIC50 is on record?
Result: > 6.70

Problem: For the compound COc1cc(-c2ccnc(N3CCNCC3)n2)cnc1O , what pIC50 is on record?
Result: < 5.70

Problem: For the compound COc1cnc(N2CCNCC2)nc1-c1cnc2ccccc2c1 , what pIC50 is on record?
Result: > 6.70

Problem: For the compound c1ccc2ncc(-c3cc(N4CCOCC4)nc(N4CCNCC4)n3)cc2c1 , what pIC50 is on record?
Result: 6.00 to 6.70

Problem: For the compound Cn1cnc2c(-c3cnc4ccccc4c3)nc(N3CCNCC3)nc21 , what pIC50 is on record?
Result: 6.00 to 6.70

Problem: For the compound NCC1CCN(c2cccc(-c3cnc4ccccc4c3)c2)CC1 , what pIC50 is on record?
Result: < 5.70

Problem: For the compound OCCC1CCN(c2nccc(-c3cnc4ccccc4c3)n2)CC1 , what pIC50 is on record?
Result: < 5.70

Problem: For the compound [2H]c1nc2ccccc2cc1-c1ccnc(N2CCC(CN)CC2)n1 , what pIC50 is on record?
Result: > 6.70

Problem: For the compound c1ccc2ncc(-c3nc(N4CCNCC4)nc4ccccc34)cc2c1 , what pIC50 is on record?
Result: 6.00 to 6.70

Problem: For the compound c1ccc2c(-c3ccnc(N4CCNCC4)n3)coc2c1 , what pIC50 is on record?
Result: 6.00 to 6.70

Problem: For the compound Fc1cnc(N2CCNCC2)nc1-c1cnc2ccccc2c1 , what pIC50 is on record?
Result: > 6.70

Problem: For the compound FC(F)(F)c1cc(-c2cnc3ccccc3c2)nc(N2CCNCC2)n1 , what pIC50 is on record?
Result: > 6.70

Problem: For the compound NCC1CCN(c2nccc(-c3cc4ccccc4nc3N)n2)CC1 , what pIC50 is on record?
Result: < 5.70

Problem: For the compound NCCCNc1nccc(-c2cnc3ccccc3c2)n1 , what pIC50 is on record?
Result: 5.70 to 6.00

Problem: For the compound NCCC1CCN(c2nccc(-c3cnc4ccccc4c3)n2)CC1 , what pIC50 is on record?
Result: 6.00 to 6.70

Problem: For the compound NCC1CCN(c2cccc(-c3cnc4ccccc4c3)n2)CC1 , what pIC50 is on record?
Result: < 5.70

Problem: For the compound O=CNCC1CCN(c2nccc(-c3ccc4ncccc4c3)n2)CC1 , what pIC50 is on record?
Result: < 5.70

Problem: For the compound NCCNc1nccc(-c2cnc3ccccc3c2)n1 , what pIC50 is on record?
Result: > 6.70

Problem: For the compound COc1nc2ccccc2cc1-c1ccnc(N2CCC(CN)CC2)n1 , what pIC50 is on record?
Result: > 6.70

Problem: For the compound NCC1CCN(c2nccc(-c3cc4ccccc4nc3N3CCC(CN)CC3)n2)CC1 , what pIC50 is on record?
Result: 5.70 to 6.00

Problem: For the compound Nc1cc(N2CCNCC2)nc(-c2cnc3ccccc3c2)n1 , what pIC50 is on record?
Result: 5.70 to 6.00

Problem: For the compound N#Cc1cc(-c2cnc3ccccc3c2)nc(N2CCNCC2)n1 , what pIC50 is on record?
Result: > 6.70

Problem: For the compound c1cc(-c2cnc3c(c2)OCCO3)nc(N2CCNCC2)n1 , what pIC50 is on record?
Result: < 5.70

Problem: For the compound c1ccc2ncc(-c3nc(N4CCNCC4)nc4c3CCCC4)cc2c1 , what pIC50 is on record?
Result: 6.00 to 6.70

Problem: For the compound COc1cc(-c2ccnc(N3CCNCC3)n2)cnc1OC , what pIC50 is on record?
Result: < 5.70

Problem: For the compound NCC1CCN(c2nccc(-c3cnc4ccccc4c3)n2)CC1 , what pIC50 is on record?
Result: > 6.70

Values compiled from patent US20240199654A1.
